Where do these numbers come from? They come from patent US20050287542A1.

TESTED_SYSTEM: T1, wild type CBP KIX (Example 20) (UniProt P45481 586-665, limits assumed)
T1 construct: domain: KIX
T1 sequence (P45481 586-665 limits assumed): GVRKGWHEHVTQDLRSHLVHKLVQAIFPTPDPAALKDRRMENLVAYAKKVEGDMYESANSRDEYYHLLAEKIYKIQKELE
TEST: fluorescence polarization
Square brackets hold non-standard residues; d marks the D form. * marks the point of attachment. Fluorescein(5-NHCOCH2) = O=C(C*)Nc1ccc2c(c1)C(=O)OC21c2ccc(O)cc2Oc2cc(O)ccc21; pS = N[C@@H](COP(=O)(O)O)C(=O)O
Record Satisfied whenever ΔΔG against wild type PPKID4^P is at 0.8 kJ/mol or higher; record Not satisfied when lower.

As a guide, the following entries are already answered.
H-GPSQPTYPGDDAPVRRL[pS]FFYILLDLALDAPGVC(Fluorescein(5-NHCOCH2))-NH2 (designed binder) [PPKID4^P variant Y27A]; Satisfied
H-GASQPTYPGDDAPVRRL[pS]FFYILLDLYLDAPGVC(Fluorescein(5-NHCOCH2))-NH2 (designed binder) [PPKID4^P variant P2A]; Satisfied
H-GPSQPTYPGDDAPVRRL[pS]FFYILLDLYADAPGVC(Fluorescein(5-NHCOCH2))-NH2 (designed binder) [PPKID4^P variant L28A]; Not satisfied
H-GPSQPTYPGDDAPVRRA[pS]FFYILLDLYLDAPGVC(Fluorescein(5-NHCOCH2))-NH2 (designed binder) [PPKID4^P variant L17A]; Not satisfied

Would you say H-GPSQPTYPGDDAPVRRL[pS]FFYILADLYLDAPGVC(Fluorescein(5-NHCOCH2))-NH2 (designed binder) [PPKID4^P variant L24A] shows ΔΔG against wild type PPKID4^P at minimum 0.8 kJ/mol?
Satisfied
